# test.target: recombinant human CYP2C19 (Homo sapiens, UniProt P33261)
# Sequence (P33261 whole entry): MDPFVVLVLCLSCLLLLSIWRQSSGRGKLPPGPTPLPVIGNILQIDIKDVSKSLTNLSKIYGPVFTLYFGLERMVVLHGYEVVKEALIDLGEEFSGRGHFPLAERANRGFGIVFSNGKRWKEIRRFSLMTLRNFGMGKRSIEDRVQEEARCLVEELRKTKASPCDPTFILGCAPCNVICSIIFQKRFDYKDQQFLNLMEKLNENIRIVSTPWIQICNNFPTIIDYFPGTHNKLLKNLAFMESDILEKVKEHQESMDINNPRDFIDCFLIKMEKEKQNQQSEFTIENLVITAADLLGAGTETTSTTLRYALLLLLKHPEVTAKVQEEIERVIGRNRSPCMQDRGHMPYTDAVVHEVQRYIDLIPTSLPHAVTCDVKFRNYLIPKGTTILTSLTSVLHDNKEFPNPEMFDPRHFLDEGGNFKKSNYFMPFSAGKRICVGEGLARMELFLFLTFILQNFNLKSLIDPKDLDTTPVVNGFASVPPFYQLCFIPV
# assay.remarks: P450-Glo bioluminescent CYP450 inhibition assay
# Format: in vitro ADME
# condition.details: read-out: CYP2C19 inhibitory potency class; class by IC50
Some molecules, each annotated with its measured IC50.

Record COc1cc(/C=C/C(=O)O)ccc1O [Ferulic acid, ferulic acid] : what is its IC50 with recombinant human CYP2C19 (Homo sapiens, UniProt P33261)?
> 50 µM

// moving on: another record for IC50
What value of IC50 on recombinant human CYP2C19 (Homo sapiens, UniProt P33261) does CCOC(=O)C=Cc1ccc(OC)cc1 [EPMC, ethyl-p-methoxycinnamate] have?
> 50 µM

----------
# test.target: recombinant human CYP2D6 (Homo sapiens)
# assay.remarks: P450-Glo bioluminescent CYP450 inhibition assay
# condition.details: read-out: CYP2D6 IC50; median (range); unit of the reference inhibitor
readout.name: IC50 (µM)

P = COc1cc(/C=C/C(=O)O)ccc1O
Q = CCOC(=O)C=Cc1ccc(OC)cc1 [EPMC, ethyl-p-methoxycinnamate]
Thinking about recorded IC50 values, which is higher, P or Q ? Please respond with the label that marks your chosen entry.
Q

----------
Attribute: IC50
# test.target: recombinant human CYP2C9 (Homo sapiens)
# assay.remarks: P450-Glo bioluminescent CYP450 inhibition assay
# condition.details: read-out: CYP2C9 inhibitory potency class; class by IC50

Fill blank: measured IC50 of the compound COc1cc(/C=C/C(=O)O)ccc1O [Ferulic acid, ferulic acid] is ____.
> 50 µM

Attention now shifts to the item below.
Reported IC50, compound CCOC(=O)C=Cc1ccc(OC)cc1 [EPMC, ethyl-p-methoxycinnamate] : ____
> 50 µM

----------
# test.target: recombinant human CYP1A2 (Homo sapiens)
# Sequence (P05177 1-516): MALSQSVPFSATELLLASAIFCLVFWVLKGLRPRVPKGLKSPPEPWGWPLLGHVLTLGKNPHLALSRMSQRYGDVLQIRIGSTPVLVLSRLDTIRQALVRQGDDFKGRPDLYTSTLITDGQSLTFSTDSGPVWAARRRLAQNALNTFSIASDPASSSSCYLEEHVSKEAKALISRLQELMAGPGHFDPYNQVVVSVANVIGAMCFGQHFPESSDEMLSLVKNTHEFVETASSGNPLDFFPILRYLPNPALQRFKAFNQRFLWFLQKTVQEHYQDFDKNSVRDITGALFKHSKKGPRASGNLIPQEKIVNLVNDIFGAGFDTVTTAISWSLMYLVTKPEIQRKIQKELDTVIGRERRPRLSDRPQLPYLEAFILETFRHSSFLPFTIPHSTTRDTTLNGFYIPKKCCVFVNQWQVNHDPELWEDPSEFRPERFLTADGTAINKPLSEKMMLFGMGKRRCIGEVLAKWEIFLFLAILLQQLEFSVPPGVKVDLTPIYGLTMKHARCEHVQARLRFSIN
# assay.remarks: P450-Glo bioluminescent CYP450 inhibition assay
# Type: in vitro ADME
readout.name: IC50

Quick one: IC50 for CCC/C=C1\OC(=O)C2=C1CCC=C2 [Ligustilide, ligustilide] ?
10 to 50 µM

----------
# test.target: recombinant human CYP2C19 (Homo sapiens, UniProt P33261)
# assay.remarks: P450-Glo bioluminescent CYP450 inhibition assay
# Type: in vitro ADME
# condition.details: CYP2C19 IC50, median (range); unit of the reference inhibitor
readout.name: pIC50
A value of pIC50 is the negative decimal logarithm of a concentration given in moles per litre.

Recorded pIC50 for CCC/C=C1\OC(=O)C2=C1CCC=C2 [Ligustilide, ligustilide] with recombinant human CYP2C19 (Homo sapiens, UniProt P33261), please?
4.05

----------
# test.target: recombinant human CYP2C19 (Homo sapiens, UniProt P33261)
# assay.remarks: P450-Glo bioluminescent CYP450 inhibition assay
# Assay type: in vitro ADME
# condition.details: read-out: CYP2C19 IC50; median (range); unit of the reference inhibitor
readout.name: IC50 (µM)

a = CCOC(=O)C=Cc1ccc(OC)cc1 [EPMC, ethyl-p-methoxycinnamate]
b = COc1cc(/C=C/C(=O)O)ccc1O
Please compare: a and b . Report which one has the smaller IC50 value. Response format: the label of the selected entry.
a
(a: 80.4 µM, b: 1450 µM)

----------
# test.target: recombinant human CYP3A4 (Homo sapiens)
# Sequence (P08684 whole entry): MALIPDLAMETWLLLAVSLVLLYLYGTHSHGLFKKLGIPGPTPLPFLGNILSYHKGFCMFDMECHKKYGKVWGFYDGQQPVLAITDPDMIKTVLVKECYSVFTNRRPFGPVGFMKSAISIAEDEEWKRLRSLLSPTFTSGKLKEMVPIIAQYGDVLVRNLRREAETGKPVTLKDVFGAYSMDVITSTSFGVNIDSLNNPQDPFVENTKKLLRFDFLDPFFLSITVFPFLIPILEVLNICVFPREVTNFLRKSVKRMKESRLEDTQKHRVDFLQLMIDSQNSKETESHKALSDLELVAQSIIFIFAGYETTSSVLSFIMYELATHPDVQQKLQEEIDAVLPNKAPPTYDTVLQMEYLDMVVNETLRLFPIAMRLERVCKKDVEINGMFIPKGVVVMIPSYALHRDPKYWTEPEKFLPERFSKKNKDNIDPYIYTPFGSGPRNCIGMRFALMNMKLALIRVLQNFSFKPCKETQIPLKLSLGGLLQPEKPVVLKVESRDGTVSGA
# assay.remarks: P450-Glo bioluminescent CYP450 inhibition assay
# Format: in vitro ADME
# condition.details: read-out: CYP3A4 inhibitory potency class; class by IC50
readout.name: IC50

Consider the compound shown here: CCOC(=O)C=Cc1ccc(OC)cc1 [EPMC, ethyl-p-methoxycinnamate] What is its recorded IC50?
> 50 µM

We next turn to a different compound, shown below.
Need IC50 of COc1cc(/C=C/C(=O)O)ccc1O , thanks.
> 50 µM

----------
# test.target: recombinant human CYP2C9 (Homo sapiens, UniProt P11712)
# Sequence (P11712 whole entry): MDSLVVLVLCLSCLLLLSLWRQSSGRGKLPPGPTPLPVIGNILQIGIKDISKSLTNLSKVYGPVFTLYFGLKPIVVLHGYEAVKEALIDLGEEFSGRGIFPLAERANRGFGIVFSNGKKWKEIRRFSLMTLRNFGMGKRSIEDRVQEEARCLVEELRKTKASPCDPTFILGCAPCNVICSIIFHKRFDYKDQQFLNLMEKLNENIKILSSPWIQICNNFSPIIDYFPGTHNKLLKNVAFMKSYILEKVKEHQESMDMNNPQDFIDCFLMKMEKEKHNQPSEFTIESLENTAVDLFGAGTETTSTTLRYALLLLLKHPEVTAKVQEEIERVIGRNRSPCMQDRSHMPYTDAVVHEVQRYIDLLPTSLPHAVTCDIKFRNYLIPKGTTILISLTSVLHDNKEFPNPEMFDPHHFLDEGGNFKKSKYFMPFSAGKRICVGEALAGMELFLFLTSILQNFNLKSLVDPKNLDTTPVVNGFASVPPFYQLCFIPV
# assay.remarks: P450-Glo bioluminescent CYP450 inhibition assay
# condition.details: read-out: CYP2C9 IC50; median (range); unit of the reference inhibitor
readout.name: IC50 (µM)

P = COc1cc(/C=C/C(=O)O)ccc1O
Q = CCOC(=O)C=Cc1ccc(OC)cc1 [EPMC, ethyl-p-methoxycinnamate]
Response body: label of entry with the larger IC50; valid values P , Q . Respond with the label that goes with your answer.
P

----------
# test.target: recombinant human CYP1A2 (Homo sapiens, UniProt P05177)
# Sequence (P05177 1-516): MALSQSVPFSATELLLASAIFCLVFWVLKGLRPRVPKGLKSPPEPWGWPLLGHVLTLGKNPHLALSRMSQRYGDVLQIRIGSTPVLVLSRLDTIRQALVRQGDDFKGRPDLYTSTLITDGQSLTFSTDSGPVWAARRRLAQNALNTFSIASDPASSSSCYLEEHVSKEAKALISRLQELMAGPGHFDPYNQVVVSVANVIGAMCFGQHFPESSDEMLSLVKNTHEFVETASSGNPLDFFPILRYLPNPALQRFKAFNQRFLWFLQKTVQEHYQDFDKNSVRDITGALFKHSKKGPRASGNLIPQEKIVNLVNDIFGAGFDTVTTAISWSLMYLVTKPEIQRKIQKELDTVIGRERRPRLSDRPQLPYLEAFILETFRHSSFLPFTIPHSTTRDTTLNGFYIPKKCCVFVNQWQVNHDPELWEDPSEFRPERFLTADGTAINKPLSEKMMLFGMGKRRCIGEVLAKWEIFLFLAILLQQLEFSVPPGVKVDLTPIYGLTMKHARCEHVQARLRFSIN
# assay.remarks: P450-Glo bioluminescent CYP450 inhibition assay
# Type: in vitro ADME
# condition.details: read-out: CYP1A2 IC50; median (range); unit of the reference inhibitor
readout.name: IC50 (µM)

I = CCOC(=O)C=Cc1ccc(OC)cc1 [EPMC, ethyl-p-methoxycinnamate]
II = COc1cc(/C=C/C(=O)O)ccc1O
Which numeric IC50 is bigger, that of I or that of II ? Give the label of your selection.
II
(II: 5250 µM, I: 118 µM)

----------
# test.target: recombinant human CYP2D6 (Homo sapiens, UniProt P10635)
# Sequence (P10635 whole entry): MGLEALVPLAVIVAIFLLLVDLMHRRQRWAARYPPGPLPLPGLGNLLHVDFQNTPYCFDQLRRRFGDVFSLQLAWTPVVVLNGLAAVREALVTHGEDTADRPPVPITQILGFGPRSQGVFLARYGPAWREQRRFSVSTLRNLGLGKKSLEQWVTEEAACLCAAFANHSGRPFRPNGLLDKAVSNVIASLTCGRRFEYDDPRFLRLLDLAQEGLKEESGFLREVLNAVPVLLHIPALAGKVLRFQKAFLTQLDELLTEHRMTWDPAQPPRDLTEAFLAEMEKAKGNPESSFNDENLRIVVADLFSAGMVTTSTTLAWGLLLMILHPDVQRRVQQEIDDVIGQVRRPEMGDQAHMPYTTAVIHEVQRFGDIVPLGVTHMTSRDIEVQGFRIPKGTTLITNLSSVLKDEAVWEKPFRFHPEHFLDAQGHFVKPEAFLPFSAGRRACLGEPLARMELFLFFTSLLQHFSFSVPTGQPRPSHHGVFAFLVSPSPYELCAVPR
# assay.remarks: P450-Glo bioluminescent CYP450 inhibition assay
# condition.details: CYP2D6 IC50, median (range); unit of the reference inhibitor
readout.name: IC50 (µM)
Your answer should be a plain number; it is taken to be in µM.

// IC50 lookup, key: CCC/C=C1\OC(=O)C2=C1CCC=C2 [Ligustilide, ligustilide]
218
